All figures here come from patent US20230039836A1.

test system: MDA-MB-231 (human mammary breast adenocarcinoma); assay: MTT antiproliferative assay, 48 h; type: cell-based; settings: Homo sapiens, MDA-MB-231, 48-hour exposition, read-out: Cytotoxicity, IC50, µM MDA-MB-231
Recorded IC50 for the following compounds

{"columns": ["COMPOUND", "READING UNIT", "COMPARATOR", "IC50"],
 "data": [
  ["CNc1ccc2cc(S(=O)(=O)N3CC3C(=O)OC)ccc2c1Cl (stereo not shown)", "µM", "=", 32],
  ["COC(=O)[C@H]1CN1S(=O)(=O)c1ccc(C)cc1 (stereo partly shown)", "µM", "=", 40],
  ["COC(=O)C1CN1S(=O)(=O)c1ccc2oc(=O)ccc2c1 (stereo not shown)", "µM", "=", 247],
  ["COC(=O)C1CN1S(=O)(=O)c1ccccc1C (stereo not shown)", "µM", "=", 380],
  ["COC(=O)C1CN1S(=O)(=O)c1ccc2c(C=O)c(N(C)C)ccc2c1 (stereo not shown)", "µM", "=", 18],
  ["COC(=O)C1CN1S(=O)(=O)c1ccco1 (stereo not shown)", "µM", ">", 200],
  ["COC(=O)C1CN1S(=O)(=O)c1cccnc1 (stereo not shown)", "µM", "=", 128],
  ["COC(=O)[C@@H]1CN1S(=O)(=O)c1ccc(C)cc1 (stereo partly shown)", "µM", "=", 107],
  ["NC(=O)C1CN1S(=O)(=O)c1ccc(C(F)(F)F)cc1 (stereo not shown)", "µM", "=", 102],
  ["CCCCCCc1ccc(S(=O)(=O)N2CC2C(N)=O)cc1 (stereo not shown)", "µM", "=", 32],
  ["CCCCc1ccc(S(=O)(=O)N2CC2C(C)=O)cc1 (stereo not shown)", "µM", "=", 8.4],
  ["CCCCCCc1ccc(S(=O)(=O)N2CC2C(=O)N2CCOCC2)cc1 (stereo not shown)", "µM", "=", 12],
  ["Cc1ccc(S(=O)(=O)N2CC2C=O)cc1 (stereo not shown)", "µM", "=", 6.8],
  ["CC(=O)C1CN1S(=O)(=O)c1ccc(C)cc1 (stereo not shown)", "µM", "=", 9.1],
  ["COC(=O)C1CN1S(=O)(=O)c1ccc2[nH]c(=O)ccc2c1 (stereo not shown)", "µM", "=", 136],
  ["NC(=O)C1CN1S(=O)(=O)c1ccc(N)cc1 (stereo not shown)", "µM", "=", 64]
]}

###

Recorded EC50 for the following molecules
target: PDI A1 (Homo sapiens); experiment: Insulin turbidometric assay, inhibition of PDI A1; details: insulin reduction, turbidity at 650 nm, 60 min incubation at 37° C.; read-out: Inhibition of PDI A1 (EC 50)
Sequence (P07237 18-508, species assumed): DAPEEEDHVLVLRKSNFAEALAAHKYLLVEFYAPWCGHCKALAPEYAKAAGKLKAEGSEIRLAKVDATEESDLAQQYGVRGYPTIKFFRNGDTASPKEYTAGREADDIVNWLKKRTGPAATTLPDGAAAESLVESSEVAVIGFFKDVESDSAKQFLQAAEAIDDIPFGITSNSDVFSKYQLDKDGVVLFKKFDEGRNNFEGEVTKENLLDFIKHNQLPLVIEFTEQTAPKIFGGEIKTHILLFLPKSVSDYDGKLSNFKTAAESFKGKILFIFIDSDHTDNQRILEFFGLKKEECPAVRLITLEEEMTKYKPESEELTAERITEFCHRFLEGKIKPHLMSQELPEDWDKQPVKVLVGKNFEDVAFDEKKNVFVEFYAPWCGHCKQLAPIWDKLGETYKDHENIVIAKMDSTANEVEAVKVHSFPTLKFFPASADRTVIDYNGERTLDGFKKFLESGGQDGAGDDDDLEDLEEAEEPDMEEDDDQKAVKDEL

{"columns": ["MOLECULE", "EC50"],
 "data": [
  ["COC(=O)C1CN1S(=O)(=O)c1ccc2oc(=O)ccc2c1 (stereo not drawn) [Compound C-3355]", "7.7 µM"],
  ["CN(C)c1ccc2c(S(=O)(=O)N3CC3C(N)=O)cccc2c1 (stereo not drawn) [Compound C-3459]", "33 µM"],
  ["COC(=O)C1CN1S(=O)(=O)c1ccc(-c2ccccc2)cc1 (stereo not drawn) [Compound C-3291]", "0.4 µM"]
]}

###

tested on: MCF-7 (human breast adenocarcinoma, estrogen-positive); test: MTT antiproliferative assay, 48 h; type: cell-based; settings: Homo sapiens, MCF7, 48-hour exposition, read-out: Cytotoxicity, IC50, µM MCF-7
Define the label as criterion met when IC50 is strictly less than 90 µM and as criterion not met in all remaining cases.

{"columns": ["COMPOUND", "CLASS LABEL"],
 "data": [
  ["COC(=O)[C@@H]1CN1S(=O)(=O)c1ccc(C)cc1 (some centres unmarked)", "criterion met"],
  ["NC(=O)C1CN1S(=O)(=O)c1cccnc1 (centres unmarked)", "criterion met"],
  ["CCCCCCc1ccc(S(=O)(=O)N2CC2C(=O)OC)cc1 (centres unmarked)", "criterion not met"],
  ["COC(=O)C1CN1S(=O)(=O)c1cccnc1 (centres unmarked)", "criterion not met"],
  ["COC(=O)C1CN1S(=O)(=O)c1ccc2oc(=O)ccc2c1 (centres unmarked)", "criterion not met"],
  ["COC(=O)C1CN1S(=O)(=O)c1ccc(C(C)(C)C)cc1 (centres unmarked)", "criterion met"],
  ["NC(=O)C1CN1S(=O)(=O)c1ccc(N)cc1 (centres unmarked)", "criterion not met"]
]}

###

test system: HT-1080 (human fibrosarcoma); experiment: MTT antiproliferative assay, 48 h; assay type: cell-based; settings: 48-hour exposition, read-out: Cytotoxicity, IC50, µM HT-1080

{"columns": ["COMPOUND", "COMPARATOR", "IC50, µM"],
 "data": [
  ["CN(C)c1ccc2c(S(=O)(=O)N3CC3C(N)=O)cccc2c1 (centres unmarked) [Compound C-3459]", ">", 500],
  ["CN(C)C(=O)C1CN1S(=O)(=O)c1ccc(N(C)C)cc1 (centres unmarked) [Compound C-3357]", "=", 30],
  ["COC(=O)C1CN1S(=O)(=O)c1ccco1 (centres unmarked) [Compound C-3346]", "=", 169],
  ["NC(=O)C1CN1S(=O)(=O)c1ccc(N)cc1 (centres unmarked) [Compound C-3218]", "=", 200],
  ["COC(=O)C1CN1S(=O)(=O)c1ccc2oc(=O)ccc2c1 (centres unmarked) [Compound C-3355]", "=", 20],
  ["COC(=O)C1CN1S(=O)(=O)c1ccc2c(C=O)c(N(C)C)ccc2c1 (centres unmarked) [Compound C-3390]", "=", 7.9],
  ["COC(=O)[C@@H]1CN1S(=O)(=O)c1cccc2cc(N(C)C)ccc12 (some centres unmarked) [Compound C-3548]", "=", 9.2],
  ["COC(=O)[C@@H]1CN1S(=O)(=O)c1ccc(C)cc1 (some centres unmarked) [Compound C-3535]", "=", 84]
]}

###

target: PDI A1 (Homo sapiens); assay: Insulin turbidometric assay, inhibition of PDI A1; details: insulin reduction, turbidity at 650 nm, 60 min incubation at 37° C.; read-out: Inhibition of PDI A1 (EC 50)
Recorded EC50 for the following compounds

{"columns": ["COMPOUND", "COMPARATOR", "EC50, µM"],
 "data": [
  ["COC(=O)C1CN1S(=O)(=O)c1ccco1 (centres unmarked) [Compound C-3346]", ">", 200],
  ["CC(=O)C1CN1S(=O)(=O)c1ccc(C)cc1 (centres unmarked) [Compound C-3263]", "=", 140],
  ["COC(=O)C1CN1S(=O)(=O)c1ccccc1 (centres unmarked) [Compound C-3251]", "=", 6],
  ["CCCCOc1ccc(S(=O)(=O)N2CC2C(=O)OC)cc1 (centres unmarked) [Compound C-3271]", "=", 1],
  ["CN(C)C(=O)C1CN1S(=O)(=O)c1ccc(C(C)(C)C)cc1 (centres unmarked) [Compound C-3594]", "=", 26],
  ["COC(=O)[C@H]1CN1S(=O)(=O)c1cccc2cc(N(C)C)ccc12 (some centres unmarked) [Compound C-3570]", "=", 11],
  ["CCCCc1ccc(S(=O)(=O)N2CC2C=O)cc1 (centres unmarked) [Compound C-3273]", "=", 3],
  ["COC(=O)C1CN1S(=O)(=O)c1cccnc1 (centres unmarked) [Compound C-3559]", "=", 10.6],
  ["COC(=O)C1CN1S(=O)(=O)c1ccc(NC(C)=O)cc1 (centres unmarked) [Compound C-3308]", "=", 18],
  ["COC(=O)C1CN1S(=O)(=O)c1ccc2[nH]c(=O)ccc2c1 (centres unmarked) [Compound C-3350]", "=", 5.5],
  ["COC(=O)C1CN1S(=O)(=O)c1ccc(C(C)(C)C)cc1 (centres unmarked) [Compound C-3290]", "=", 0.4],
  ["COC(=O)C1CN1S(=O)(=O)c1ccc([N+](=O)[O-])cc1 (centres unmarked) [Compound C-3212]", "=", 34],
  ["COC(=O)C1CN1S(=O)(=O)c1ccc(F)cc1F (centres unmarked) [Compound C-3353]", "=", 5],
  ["Cc1ccc(S(=O)(=O)N2CC2C(N)=O)cc1 (centres unmarked) [Compound C-3220]", ">", 200],
  ["CN(C)C(=O)C1CN1S(=O)(=O)c1ccc(F)cc1F (centres unmarked) [Compound C-3403]", "=", 12.3],
  ["COC(=O)C1CN1S(=O)(=O)c1cccc2ccccc12 (centres unmarked) [Compound C-3311]", "=", 5],
  ["CN(C)C(=O)C1CN1S(=O)(=O)c1ccc(N(C)C)c2ccccc12 (centres unmarked) [Compound C-3385]", "=", 0.7],
  ["NC(=O)C1CN1S(=O)(=O)c1ccc(N)cc1 (centres unmarked) [Compound C-3218]", ">", 200],
  ["CCCCCCc1ccc(S(=O)(=O)N2CC2C(=O)N(C)C)cc1 (centres unmarked) [Compound C-3369]", "=", 0.04],
  ["COC(=O)[C@@H]1CN1S(=O)(=O)c1ccc(C)cc1 (some centres unmarked) [Compound C-3535]", "=", 11.2],
  ["NC(=O)C1CN1S(=O)(=O)c1cccnc1 (centres unmarked) [Compound C-3562]", "=", 29],
  ["COC(=O)C1CN1S(=O)(=O)c1ccc(C(F)(F)F)cc1 (centres unmarked) [Compound C-3256]", "=", 0.5],
  ["COC(=O)[C@H]1CN1S(=O)(=O)c1ccc(C)cc1 (some centres unmarked) [Compound C-3539]", "=", 29]
]}
